system: 276233-004-R-J1-PDC complex spheroid viability; test: Anticancer human tumor 276233-004-R-J1-PDC patient-derived colon adenocarcinoma cell line growth inhibition [GQUAD]; settings: second compound 1 µM; first compound 0.316 µM; active compounds read low
Consider the cut-off 60%. If the recorded viability, T/C is strictly smaller, the label is condition met; if not, the label is condition not met.

1. CCCS(=O)(=O)Nc1ccc(F)c(C(=O)c2c[nH]c3ncc(-c4ccc(Cl)cc4)cc23)c1F + Cc1cnc(CNC(=O)c2c(=O)c3ccc(N4CCCN(C)CC4)nc3n3c2sc2ccccc23)cn1; condition not met
2. COc1cccc2c1C(=O)c1c(O)c3c(c(O)c1C2=O)CC(O)(C(=O)CO)CC3OC1CC(N)C(O)C(C)O1 (stereo not given) + Cc1[nH]c2ccc(F)cc2c1-c1nc2c3cccnc3c3ncccc3c2[nH]1; condition not met
3. Nc1ccn(C2OC(CO)C(O)C2(F)F)c(=O)n1 (stereo not given) + Cc1[nH]c2ccc(F)cc2c1-c1nc2c3cccnc3c3ncccc3c2[nH]1; condition not met
4. CC(=O)O[C@H]1C(=O)[C@@]2(C)[C@H]([C@H](OC(=O)c3ccccc3)[C@]3(O)C[C@H](OC(=O)[C@H](O)[C@@H](NC(=O)c4ccccc4)c4ccccc4)C(C)=C1C3(C)C)[C@]1(OC(C)=O)CO[C@@H]1C[C@@H]2O + Cc1[nH]c2ccc(F)cc2c1-c1nc2c3cccnc3c3ncccc3c2[nH]1; condition met
5. Nc1ccn(C2OC(CO)C(O)C2(F)F)c(=O)n1 (stereo not given) + CN(C)c1ccc(Nc2c3ccc(NC(=O)CCN4CCCC4)cc3nc3cc(NC(=O)CCN4CCCC4)ccc23)cc1; condition met

----------
tested on: 276233-004-R-J1-PDC complex spheroid viability; experiment: Anticancer human tumor 276233-004-R-J1-PDC cell line growth inhibition [GQUAD]; conditions: second compound 3.16 µM; first compound 1 µM; active means viability on the fitted dose curve at most 10% of control; inactive means the rest;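 also: spheroids exposed to drugs for seven days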
Possible outcomes: active, inactive

1. C#Cc1c(F)ccc2cc(O)cc(-c3ncc4c(N5CC6CCC(C5)N6)nc(OCC56CCCN5CC(F)C6)nc4c3F)c12 (stereo unspecified) + CN(C)c1ccc(Nc2c3ccc(NC(=O)CCN4CCCC4)cc3nc3cc(NC(=O)CCN4CCCC4)ccc23)cc1; inactive
2. CC1COCCN1c1cc(C2(O)CC3CCC(C2)O3)c2cnn(-c3ccn[nH]3)c2n1 (stereo unspecified) + CN(C)c1ccc(Nc2c3ccc(NC(=O)CCN4CCCC4)cc3nc3cc(NC(=O)CCN4CCCC4)ccc23)cc1; inactive
3. Cc1cccc(N(C)C(=O)C2C(O)CCN2c2nc(C)cc(C(F)(F)F)c2C#N)c1 (stereo unspecified) + Cc1cnc(CNC(=O)c2c(=O)c3ccc(N4CCCN(C)CC4)nc3n3c2sc2ccccc23)cn1; inactive
4. CC1COCCN1c1cc(C2(S(C)(=N)=O)CC2)nc(-c2ccnc3[nH]ccc23)n1 (stereo unspecified) + Cc1cnc(CNC(=O)c2c(=O)c3ccc(N4CCCN(C)CC4)nc3n3c2sc2ccccc23)cn1; inactive
5. CC(C)n1c(=O)n(C)c2cnc3cc(F)c(-c4ccc(OCCCN5CCCCC5)nc4)cc3c21 + CN(C)c1ccc(Nc2c3ccc(NC(=O)CCN4CCCC4)cc3nc3cc(NC(=O)CCN4CCCC4)ccc23)cc1; inactive
6. O=C(NO)c1cnc(N2CCN(S(=O)(=O)c3ccc4ccccc4c3)CC2)nc1 + CN(C)c1ccc(Nc2c3ccc(NC(=O)CCN4CCCC4)cc3nc3cc(NC(=O)CCN4CCCC4)ccc23)cc1; active
7. COc1cccc2c1C(=O)c1c(O)c3c(c(O)c1C2=O)CC(O)(C(=O)CO)CC3OC1CC(N)C(O)C(C)O1 (stereo unspecified) + CN(C)c1ccc(Nc2c3ccc(NC(=O)CCN4CCCC4)cc3nc3cc(NC(=O)CCN4CCCC4)ccc23)cc1; inactive
8. C#Cc1c(F)ccc2cc(O)cc(-c3ncc4c(N5CC6CCC(C5)N6)nc(OCC56CCCN5CC(F)C6)nc4c3F)c12 (stereo unspecified) + Cc1[nH]c2ccc(F)cc2c1-c1nc2c3cccnc3c3ncccc3c2[nH]1; inactive
9. CC1COCCN1c1cc(C2(S(C)(=N)=O)CC2)nc(-c2ccnc3[nH]ccc23)n1 (stereo unspecified) + Cc1[nH]c2ccc(F)cc2c1-c1nc2c3cccnc3c3ncccc3c2[nH]1; inactive
10. COc1cccc2c1C(=O)c1c(O)c3c(c(O)c1C2=O)CC(O)(C(=O)CO)CC3OC1CC(N)C(O)C(C)O1 (stereo unspecified) + Cc1cnc(CNC(=O)c2c(=O)c3ccc(N4CCCN(C)CC4)nc3n3c2sc2ccccc23)cn1; inactive
11. Nc1ccn(C2OC(CO)C(O)C2(F)F)c(=O)n1 (stereo unspecified) + Cc1[nH]c2ccc(F)cc2c1-c1nc2c3cccnc3c3ncccc3c2[nH]1; inactive
